# study.target: cyclin D1/cdk 4 enzyme (Homo sapiens, UniProt P11802)
# Construct: made in house; host or cells: Sf9 insect cells, recombinant baculovirus
# Sequence (P11802 whole entry, species assumed): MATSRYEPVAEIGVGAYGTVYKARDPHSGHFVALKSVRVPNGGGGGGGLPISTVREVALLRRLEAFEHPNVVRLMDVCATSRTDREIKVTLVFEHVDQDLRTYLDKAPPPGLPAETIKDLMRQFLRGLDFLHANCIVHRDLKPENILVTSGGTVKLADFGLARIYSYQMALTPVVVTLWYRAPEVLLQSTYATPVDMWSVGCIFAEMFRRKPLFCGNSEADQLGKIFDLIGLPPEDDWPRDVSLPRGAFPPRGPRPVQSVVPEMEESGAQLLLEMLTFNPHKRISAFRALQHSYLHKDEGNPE
# Sequence (P24385 whole entry partner, species assumed): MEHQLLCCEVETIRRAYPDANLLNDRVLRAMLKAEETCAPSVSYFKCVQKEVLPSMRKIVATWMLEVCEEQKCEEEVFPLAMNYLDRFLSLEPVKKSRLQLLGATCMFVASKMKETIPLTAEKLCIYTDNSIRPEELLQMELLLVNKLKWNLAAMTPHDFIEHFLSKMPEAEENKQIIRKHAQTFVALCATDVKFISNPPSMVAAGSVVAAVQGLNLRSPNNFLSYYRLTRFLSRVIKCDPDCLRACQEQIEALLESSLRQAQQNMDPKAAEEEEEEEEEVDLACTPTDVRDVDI
# method.description: CDK4 ELISA kinase assay (phospho-Rb ser 795 detection)
# Assay type: biochemical
# condition.details: In Vitro Enzyme Assays, 200 μM ATP, read-out: CDK4 IC50
Reported values of log10 IC50 for individual entries
Quick note: numbers are log10 of IC50, with µM as the unit.

Known log10 IC50 results, listed for orientation:
compound	log10 IC50
CN1CCN(CCN(C)c2ccc(NC=C3C(=O)NC(=O)c4ccc(Br)cc43)cc2)CC1 (stereo in doubt)	0.41
CC1CN(C)[C@H](C)CN1c1ccc(N/C=C2\C(=O)NC(=O)c3ccc(Br)cc32)cc1 (stereo in doubt)	0.68

Input line: log10 IC50 for O=C1NC(=O)c2ccc(-c3ccco3)cc2C1=CNc1ccc(CN2CCCC2)cc1 ?
Output line: -0.70

Input line: log10 IC50 for CN1CCN(c2ccc(N/C=C3\C(=O)NC(=O)c4ccc(Br)cc43)cc2)CC1 ?
Output line: 0.15

Input line: log10 IC50 for CC1(C)Oc2cc(CN/C=C3\C(=O)NC(=O)c4ccc(Br)cc43)cc(O)c2O1 ?
Output line: -0.77

Input line: log10 IC50 for CC#CC(=O)Nc1ccc(CN/C=C2\C(=O)NC(=O)c3ccc(I)cc32)cc1O ?
Output line: -1.15

Input line: log10 IC50 for CN(C)C(=O)c1ccc2c(c1)/C(=C/Nc1ccc(CN3CCCCC3)cc1)C(=O)NC2=O ?
Output line: 1.33

Input line: log10 IC50 for CN1CCN(c2ccc(N/C=C3\C(=O)NC(=O)c4ccc(Br)cc43)cn2)CC1 ?
Output line: 0.45

Input line: log10 IC50 for CCCOc1ccc(CN/C=C2\C(=O)NC(=O)c3ccc(-c4ccc(F)cc4)cc32)cc1O ?
Output line: -1.40

Input line: log10 IC50 for O=C1NC(=O)c2ccc(Br)cc2/C1=C/NCc1cc(O)ccc1O ?
Output line: -0.96

Input line: log10 IC50 for O=C1NC(=O)c2ccc(Br)cc2/C1=C/NCc1ccc(OCc2ccccc2)c(O)c1 ?
Output line: 0.66

Input line: log10 IC50 for O=C1NC(=O)c2ccc(Br)cc2/C1=C/NCc1ccc(OCCO)c(O)c1 ?
Output line: -1.40

Input line: log10 IC50 for CN1CCC(c2ccc(N/C=C3\C(=O)NC(=O)c4ccc(Br)cc43)cc2)CC1 ?
Output line: -0.34

----------
Reported values of IC50 for individual entries
# System: LoVo
# method.description: Cytotoxicity assay (SRB), LoVo
# Assay type: cell-based
# condition.details: Homo sapiens, LoVo, 72 h, LoVo cells, SRB, three days; read-out: In Vitro Cellular Activity IC50 LOVO
Write the value in µM as a bare number.

Input line: IC50 for CN(C)CCCN/C=C1\C(=O)NC(=O)c2ccc(Br)cc21 ?
Output line: 13

Input line: IC50 for COC(=O)[C@H]1CCCN1Cc1ccc(NC=C2C(=O)NC(=O)c3ccc(I)cc32)cc1 ?
Output line: 26

Input line: IC50 for O=C1NC(=O)c2ccc(-c3ccc(Oc4ccccc4)cc3)cc2/C1=C/Nc1ccc(CN2CCCCC2)cc1 ?
Output line: 4.3

Input line: IC50 for O=C1NC(=O)c2ccc(Br)cc2/C1=C/NCCCN1CCCC1 ?
Output line: 15

src = patent US7713994B2
